B1: H2-Kb / Ed40 (parent complex)
chain 1: GDSVTQTEGPVTVSESESLIINCTYSATSIAYPNLFWYVRYPGEGLQLLLKVITAGQKGSSRGFEATYNKETTSFHLQKASVQESDSAVYYCALGDGYTGNYKYVFGAGTRLKVIA
chain 2: DSGVVQSPRHIIKEKGGRSVLTCIPISGHSNVVWYQQTLGKELKFLIQHYEKVERDKGFLPSRFSVQQFDDYHSEMNMSALELEDSAMYFCASSGASAETLYFGSGTRLTVL
chain 3: not shown
chain 4: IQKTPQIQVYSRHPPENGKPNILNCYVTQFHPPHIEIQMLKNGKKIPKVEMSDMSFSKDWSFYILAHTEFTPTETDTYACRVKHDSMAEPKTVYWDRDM
chain 5: SIINFEKL

- Variants of: B1
- experiment-description: % of reporter cells activated (NFAT-GFP), raw; also: test concentration or dose not given here
Returns fulfilled if the recorded ratio to parent is greater than or equal to 0.5, and not fulfilled otherwise.

{"mutation-spec": "chain 5 N4A", "class-name": "not fulfilled"}
{"mutation-spec": "chain 5 I2E", "class-name": "fulfilled"}
{"mutation-spec": "chain 5 I2R", "class-name": "fulfilled"}
{"mutation-spec": "chain 5 F5S", "class-name": "fulfilled"}
{"mutation-spec": "chain 5 I3T", "class-name": "not fulfilled"}
{"mutation-spec": "chain 5 I3C", "class-name": "fulfilled"}
{"mutation-spec": "chain 5 K7V", "class-name": "not fulfilled"}
{"mutation-spec": "chain 5 I3K", "class-name": "fulfilled"}
{"mutation-spec": "chain 5 K7T", "class-name": "not fulfilled"}
{"mutation-spec": "chain 5 N4C", "class-name": "not fulfilled"}
{"mutation-spec": "chain 5 I3D", "class-name": "not fulfilled"}
{"mutation-spec": "chain 5 N4S", "class-name": "not fulfilled"}
{"mutation-spec": "chain 5 F5R", "class-name": "fulfilled"}
{"mutation-spec": "chain 5 I2C", "class-name": "fulfilled"}
{"mutation-spec": "chain 5 E6L", "class-name": "not fulfilled"}
{"mutation-spec": "chain 5 N4E", "class-name": "not fulfilled"}
{"mutation-spec": "chain 5 L8Q", "class-name": "fulfilled"}
{"mutation-spec": "chain 5 S1I", "class-name": "fulfilled"}
{"mutation-spec": "chain 5 E6K", "class-name": "fulfilled"}
{"mutation-spec": "chain 5 E6A", "class-name": "not fulfilled"}
{"mutation-spec": "chain 5 K7C", "class-name": "not fulfilled"}
{"mutation-spec": "chain 5 F5A", "class-name": "fulfilled"}
{"mutation-spec": "chain 5 N4M", "class-name": "not fulfilled"}
{"mutation-spec": "chain 5 K7G", "class-name": "not fulfilled"}
{"mutation-spec": "chain 5 S1M", "class-name": "fulfilled"}
{"mutation-spec": "chain 5 E6M", "class-name": "not fulfilled"}
{"mutation-spec": "chain 5 L8R", "class-name": "fulfilled"}
{"mutation-spec": "chain 5 K7Q", "class-name": "not fulfilled"}
{"mutation-spec": "chain 5 E6T", "class-name": "not fulfilled"}
{"mutation-spec": "chain 5 F5C", "class-name": "fulfilled"}
{"mutation-spec": "chain 5 F5N", "class-name": "fulfilled"}
{"mutation-spec": "chain 5 F5K", "class-name": "fulfilled"}
{"mutation-spec": "chain 5 S1R", "class-name": "fulfilled"}
{"mutation-spec": "chain 5 K7F", "class-name": "not fulfilled"}
{"mutation-spec": "chain 5 E6G", "class-name": "not fulfilled"}
{"mutation-spec": "chain 5 I3R", "class-name": "not fulfilled"}
{"mutation-spec": "chain 5 F5V", "class-name": "fulfilled"}
{"mutation-spec": "chain 5 N4P", "class-name": "not fulfilled"}
{"mutation-spec": "chain 5 F5M", "class-name": "fulfilled"}
{"mutation-spec": "chain 5 E6C", "class-name": "not fulfilled"}
{"mutation-spec": "chain 5 I2Q", "class-name": "fulfilled"}
{"mutation-spec": "chain 5 N4Y", "class-name": "not fulfilled"}
{"mutation-spec": "chain 5 L8D", "class-name": "fulfilled"}
{"mutation-spec": "chain 5 K7M", "class-name": "not fulfilled"}
{"mutation-spec": "chain 5 N4V", "class-name": "not fulfilled"}
{"mutation-spec": "chain 5 I2H", "class-name": "fulfilled"}
{"mutation-spec": "chain 5 S1Y", "class-name": "fulfilled"}
{"mutation-spec": "chain 5 L8W", "class-name": "fulfilled"}
{"mutation-spec": "chain 5 I3F", "class-name": "fulfilled"}
{"mutation-spec": "chain 5 L8A", "class-name": "fulfilled"}
{"mutation-spec": "chain 5 L8I", "class-name": "fulfilled"}
{"mutation-spec": "chain 5 S1T", "class-name": "fulfilled"}
{"mutation-spec": "chain 5 N4W", "class-name": "not fulfilled"}
{"mutation-spec": "chain 5 S1V", "class-name": "fulfilled"}
{"mutation-spec": "chain 5 E6S", "class-name": "not fulfilled"}
{"mutation-spec": "chain 5 S1Q", "class-name": "fulfilled"}
{"mutation-spec": "chain 5 L8N", "class-name": "fulfilled"}
{"mutation-spec": "chain 5 I2D", "class-name": "fulfilled"}
{"mutation-spec": "chain 5 N4G", "class-name": "not fulfilled"}
{"mutation-spec": "chain 5 I2P", "class-name": "fulfilled"}
{"mutation-spec": "chain 5 L8E", "class-name": "fulfilled"}
{"mutation-spec": "chain 5 L8F", "class-name": "fulfilled"}
{"mutation-spec": "chain 5 S1E", "class-name": "not fulfilled"}
{"mutation-spec": "chain 5 F5H", "class-name": "fulfilled"}
{"mutation-spec": "chain 5 E6P", "class-name": "not fulfilled"}
{"mutation-spec": "chain 5 F5I", "class-name": "fulfilled"}
{"mutation-spec": "chain 5 N4D", "class-name": "not fulfilled"}
{"mutation-spec": "chain 5 K7S", "class-name": "fulfilled"}
{"mutation-spec": "chain 5 K7E", "class-name": "not fulfilled"}
{"mutation-spec": "chain 5 S1N", "class-name": "not fulfilled"}
{"mutation-spec": "chain 5 S1H", "class-name": "fulfilled"}
{"mutation-spec": "chain 5 I2L", "class-name": "fulfilled"}
{"mutation-spec": "chain 5 S1A", "class-name": "fulfilled"}
{"mutation-spec": "chain 5 K7P", "class-name": "not fulfilled"}

Value source: paper PMC11480844
